biological target: NACHT, LRR and PYD domains-containing protein 3 (Homo sapiens); experiment: Inhibition of NLRP3 inflammasome activation in PMA differentiated LPS-primed human THP-1 cells assessed as reduction in nigericin-induced IL-1beta level pretreated for 2 hrs followed by nigericin addition and measured after 30 mins by ELISA
Sequence (Q96P20 whole entry, the tested form may be a part): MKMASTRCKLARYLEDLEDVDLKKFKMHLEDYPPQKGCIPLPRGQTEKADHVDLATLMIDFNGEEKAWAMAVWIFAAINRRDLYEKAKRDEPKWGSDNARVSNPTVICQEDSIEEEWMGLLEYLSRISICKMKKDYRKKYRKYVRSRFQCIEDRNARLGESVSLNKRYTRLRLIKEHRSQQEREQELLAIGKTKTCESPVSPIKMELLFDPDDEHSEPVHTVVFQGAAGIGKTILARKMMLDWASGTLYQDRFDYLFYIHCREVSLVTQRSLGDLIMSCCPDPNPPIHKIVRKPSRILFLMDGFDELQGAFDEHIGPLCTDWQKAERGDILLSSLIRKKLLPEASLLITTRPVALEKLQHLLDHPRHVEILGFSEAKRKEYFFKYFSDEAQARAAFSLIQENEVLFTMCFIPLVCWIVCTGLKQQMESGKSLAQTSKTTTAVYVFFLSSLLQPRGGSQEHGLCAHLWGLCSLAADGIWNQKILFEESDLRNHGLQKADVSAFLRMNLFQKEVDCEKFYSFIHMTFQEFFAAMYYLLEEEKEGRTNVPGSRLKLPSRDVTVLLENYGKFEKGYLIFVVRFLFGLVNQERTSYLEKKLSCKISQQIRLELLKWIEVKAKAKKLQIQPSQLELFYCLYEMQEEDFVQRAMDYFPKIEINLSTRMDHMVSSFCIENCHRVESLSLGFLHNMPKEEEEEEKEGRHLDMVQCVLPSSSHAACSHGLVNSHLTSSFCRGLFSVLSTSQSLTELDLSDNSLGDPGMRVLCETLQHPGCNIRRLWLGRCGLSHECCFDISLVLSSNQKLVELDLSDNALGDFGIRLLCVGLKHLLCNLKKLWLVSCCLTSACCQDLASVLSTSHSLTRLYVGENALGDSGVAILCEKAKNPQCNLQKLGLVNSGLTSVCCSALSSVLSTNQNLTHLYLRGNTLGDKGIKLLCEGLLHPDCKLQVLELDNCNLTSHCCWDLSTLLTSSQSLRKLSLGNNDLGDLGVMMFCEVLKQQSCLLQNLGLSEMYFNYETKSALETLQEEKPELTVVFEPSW
Task for the reader: assign each of the following compounds its reported pIC50.
Recall that pIC50 is obtained by taking minus log10 of the concentration measured in molar.

stdin: Please provide the recorded pIC50 for "O=C(Nc1c2c(cc3c1CCC3)CCC2)NS(=O)(=O)c1ccc(N2CCN(CCO)CC2)c2nonc12" , tested on NACHT, LRR and PYD domains-containing protein 3 (Homo sapiens).
stdout: 5.62

stdin: Lab note: need pIC50 for "CN(C)c1cccc2c(S(=O)(=O)NC(=O)Nc3c4c(cc5c3CCC5)CCC4)cccc12" on NACHT, LRR and PYD domains-containing protein 3 (Homo sapiens), anyone have it?
stdout: 5.04

Source: ChEMBL document CHEMBL5120824
